EXPERIMENT NOTES: Acute toxicity, oral LD50 in rats (Example 28)
ASSAY SETUP: rat, in vivo, male rats 5 weeks old, 130 to 150 g, observed for one week
MEASURED PROPERTY: LD50 at 168 h

{"columns": ["COMPOUND", "MEASURED RESULT"],
 "data": [
  ["C#CCOC(=O)C1=C(C)NC(C)=C(C(=O)OCC#C)C1C1=COCCO1 [Sample Compound I]", "> 2000 mg/kg"],
  ["C=CCOC(=O)C1=C(C)NC(C)=C(C(=O)OCC=C)C1C1=COCCO1 [Sample Compound H]", "> 1000 mg/kg"],
  ["COCCOC(=O)C1=C(C)NC(C)=C(C(=O)OCCOC)C1C1=COCCO1 [Sample Compound J]", "> 1000 mg/kg"],
  ["CC(=O)C1=C(C)NC(C)=C(C(C)=O)C1C1=COCCO1 [Sample Compound L]", "> 1000 mg/kg"]
]}

---

EXPERIMENT NOTES: Acute toxicity, oral LD50 in rats (Example 29)
Type: in vivo
ASSAY SETUP: rat, in vivo, male rats 5 weeks old, 100 to 125 g, observed for one week
Below is a list of entries, each paired with its recorded LD50 at 168 h value.

{"columns": ["COMPOUND", "LD50 at 168 h"],
 "data": [
  ["CC(=O)C1=C(C)NC(C)=C(C(C)=O)C1C1=C(C)OC(C)CO1 (stereo not shown) [Sample Compound O]", "> 2000 mg/kg"],
  ["COCC1=C(C2C(C(C)=O)=C(C)NC(C)=C2C(C)=O)OCCO1 [Sample Compound V]", "> 2000 mg/kg"],
  ["COCOC(=O)C1=C(C)NC(C)=C(C(=O)OCOC)C1C1=COCCO1 [Sample Compound F]", "> 2000 mg/kg"],
  ["COCN1C(C)=C(C(C)=O)C(C2=COCCO2)C(C(C)=O)=C1C [Sample Compound R]", "> 1500 mg/kg"]
]}

---

Test system: liver disorder induced by carbon tetrachloride
EXPERIMENT NOTES: Effect on liver disorder induced by carbon tetrachloride in rats, serum GOT, GPT, AlP, bilirubin (Example 26)
Format: in vivo, SLC-Wistar male rats
ASSAY SETUP: Table 4; serum 24 hours after CCl4; 200 mg/kg orally x2; rats 9 weeks old; CCl4 only 0.38 ± 0.04, normal 0.10 ± 0.00
Below is a list of entries, each paired with its recorded Bilirubin value.
MEASURED PROPERTY: Bilirubin (mg/dL)

{"columns": ["MOLECULE", "MEASURED PROPERTY", "MEASURED RESULT"],
 "data": [
  ["COC(=O)C1=C(C)NC(C)=C(C(C)=O)C1C1=COCCO1 (centres unmarked) [Sample Compound M]", "Bilirubin", 0.20],
  ["C=CCOC(=O)C1=C(C)NC(C)=C(C(=O)OCC=C)C1C1=COCCO1 [Sample Compound H]", "Bilirubin", 0.22],
  ["COC(=O)C1=C(C)NC(C)=C(C(=O)OC(C)C)C1C1=COCCO1 (centres unmarked) [Sample Compound K]", "Bilirubin", 0.24],
  ["CC(=O)C1=C(C)NC(C)=C(C(C)=O)C1C1=COCCO1 [Sample Compound L]", "Bilirubin", 0.22],
  ["C#CCOC(=O)C1=C(C)NC(C)=C(C(=O)OCC#C)C1C1=COCCO1 [Sample Compound I]", "Bilirubin", 0.22],
  ["CC1=C(C(=O)OC(C)C)C(C2=COCCO2)C(C(=O)OC(C)C)=C(C)N1 [Sample Compound G]", "Bilirubin", 0.22],
  ["COCCOC(=O)C1=C(C)NC(C)=C(C(C)=O)C1C1=COCCO1 (centres unmarked) [Sample Compound N]", "Bilirubin", 0.18],
  ["COCCOC(=O)C1=C(C)NC(C)=C(C(=O)OCCOC)C1C1=COCCO1 [Sample Compound J]", "Bilirubin", 0.18]
]}

---

Test system: liver disorder induced by carbon tetrachloride
EXPERIMENT NOTES: Effect on liver disorder induced by carbon tetrachloride in rats, serum GOT, GPT, AlP, bilirubin (Example 26)
Type: in vivo, SLC-Wistar male rats
ASSAY SETUP: Table 3; serum 24 hours after CCl4; 200 mg/kg orally x2; rats 9 weeks old; CCl4 only 0.38 ± 0.06, normal 0.22 ± 0.04
Excerpt: Effect of the compounds according to the present invention on liver disorder induced by carbon tetrachloride […]
Below is a list of entries, each paired with its recorded Bilirubin value.

{"columns": ["COMPOUND", "Bilirubin / mg/dL"],
 "data": [
  ["CC(=O)C1=C(C)NC(C)=C(C(C)=O)C1C1=C(C)OC(C)CO1 (stereo not shown)", 0.26],
  ["COCOC(=O)C1=C(C)NC(C)=C(C(=O)OCOC)C1C1=COCCO1", 0.22],
  ["CC(=O)C1=C(C)NC(C)=C(C(C)=O)C1C1=CSCCS1", 0.26],
  ["CC(=O)C1=C(C)NC(C)=C(C(C)=O)C1C1=COCCC1", 0.32]
]}

---

System: liver disorder induced by carbon tetrachloride
EXPERIMENT NOTES: Effect on liver disorder induced by carbon tetrachloride in rats, serum GOT, GPT, AlP, bilirubin (Example 26)
Type: in vivo, SLC-Wistar male rats
ASSAY SETUP: Table 3; serum 24 hours after CCl4; 200 mg/kg orally x2; rats 9 weeks old; CCl4 only 34.4 ± 2.6, normal 27.0 ± 0.5
MEASURED PROPERTY: AlP (K-AU.)

{"columns": ["MOLECULE", "MEASURED PROPERTY", "MEASURED RESULT"],
 "data": [
  ["CC(=O)C1=C(C)NC(C)=C(C(C)=O)C1C1=COCCC1 [Sample Compound P]", "AlP", 35.1],
  ["CC(=O)C1=C(C)NC(C)=C(C(C)=O)C1C1=CSCCS1 [Sample Compound Q]", "AlP", 29.8],
  ["COCOC(=O)C1=C(C)NC(C)=C(C(=O)OCOC)C1C1=COCCO1 [Sample Compound F]", "AlP", 26.4],
  ["CC(=O)C1=C(C)NC(C)=C(C(C)=O)C1C1=C(C)OC(C)CO1 (stereo not shown) [Sample Compound O]", "AlP", 37.2]
]}
